procedure_text: Intrinsic clearance in rat liver microsomes
Type: ADME, Microsome
quantity_name: CLH (µL/min/mg)
The answer is to be given in µL/min/mg; state only the numeric part.

Find the recorded CLH belonging to COc1cc(C(F)(F)F)ccc1COc1cccc(N2C=NN(Cc3nc4c(F)cc(C(=O)O)cc4n3C[C@@H]3CCO3)CC2)n1 and report it. 12

====

procedure_text: Solubility of compound in PBS at pH 7.4
Assay type: physicochemical
quantity_name: solubility (µg/mL)
The answer is to be given in µg/mL; state only the numeric part.

Find the recorded solubility belonging to COC(=O)Nc1nc2cc(C(=O)c3ccc(N(C)C4COC4)cc3)ccc2[nH]1 and report it. 137

====

procedure_text: AUC (0 to 24 hrs) in rat at 5 mg/kg, po
Assay type: ADME, organism-based
experimental_context: in vivo
Kindly state AUC(0-t) for each of the entries shown.
The answer is to be given in ng·h/mL; state only the numeric part.

Find the recorded AUC(0-t) belonging to C=CC[C@@H]1/C=C(\C)C[C@H](C)C[C@H](OC)[C@H]2O[C@@](O)(C(=O)C(=O)N3CCCC[C@H]3C(=O)O[C@H](/C(C)=C/[C@@H]3CC[C@@H](O)[C@H](OC)C3)[C@H](C)[C@@H](O)CC1=O)[C@H](C)C[C@@H]2OC [TACROLIMUS ANHYDROUS] and report it. 2490

Find the recorded AUC(0-t) belonging to CO[C@H]1C[C@@H](C)C/C(C)=C/[C@@H](C/C=C/C2(O)COC2)C(=O)C[C@H](O)[C@@H](C)[C@@H](/C(C)=C/[C@@H]2CC[C@@H](O)[C@H](OC)C2)OC(=O)[C@@H]2CCCCN2C(=O)C(=O)[C@]2(O)O[C@H]1[C@@H](OC)C[C@H]2C and report it. 49100

====

Kindly state half-life at 1 µM for each of the entries shown.
procedure_text: Metabolic stability in human liver microsomes assessed as half life at 1 uM incubated for 60 mins by LC-MS/MS analysis
Format: ADME, Microsome
The answer is to be given in min; state only the numeric part.

Find the recorded half-life at 1 µM belonging to CC(C)[C@H](NC(=O)c1ccc(-c2ccc(CNc3nc4c(c(=O)[nH]3)CCC4)c(F)c2)o1)C(=O)NC1COC1 and report it. 66

Find the recorded half-life at 1 µM belonging to CC(C)[C@H](NC(=O)c1ccc(-c2ccc(CCc3nc4c(c(=O)[nH]3)CCC4)c(F)c2)o1)C(=O)NC1COC1 and report it. 61.4

====

procedure_text: Solubility of compound at pH 6.8
Format: physicochemical
experimental_context: buffer
quantity_name: solubility (µM)
The answer is to be given in µM; state only the numeric part.

Find the recorded solubility belonging to C=CC[C@@H]1/C=C(\C)C[C@H](C)C[C@H](OC)[C@H]2O[C@@](O)(C(=O)C(=O)N3CCCC[C@H]3C(=O)O[C@H](/C(C)=C/[C@@H]3CC[C@@H](O)[C@H](OC)C3)[C@H](C)[C@@H](O)CC1=O)[C@H](C)C[C@@H]2OC [TACROLIMUS ANHYDROUS] and report it. 28

====

measured_on: Developmentally-regulated GTP-binding protein 1 (Homo sapiens, UniProt Q9Y295)
Sequence (Q9Y295 whole entry): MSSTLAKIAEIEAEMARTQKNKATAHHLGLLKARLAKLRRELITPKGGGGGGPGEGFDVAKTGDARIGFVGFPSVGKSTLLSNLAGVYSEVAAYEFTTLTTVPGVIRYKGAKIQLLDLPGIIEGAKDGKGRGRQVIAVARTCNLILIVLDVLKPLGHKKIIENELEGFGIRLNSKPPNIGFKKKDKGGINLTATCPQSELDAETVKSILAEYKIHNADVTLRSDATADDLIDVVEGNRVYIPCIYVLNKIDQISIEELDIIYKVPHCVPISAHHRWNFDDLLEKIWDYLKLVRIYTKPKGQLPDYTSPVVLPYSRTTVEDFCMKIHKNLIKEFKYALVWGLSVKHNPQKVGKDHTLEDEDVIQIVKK
quantity_name: pIC50
Bear in mind: pIC50 is minus log10 of a mol/L concentration; give just that figure.

Find the recorded pIC50 belonging to CC(=O)N1CCC(c2cc(Nc3cc(C#N)ccn3)nc(N3CCC(F)(F)C3)c2)CC1 and report it. 6.74

====

Kindly state solubility kinetic at 18 h, 500 µM for each of the entries shown.
procedure_text: Kinetic solubility of compound in PBS buffer at 500 uM incubated for 18 hrs by HPLC analysis
Type: physicochemical
experimental_context: read-out: Kinetic_solubility
The answer is to be given in µM; state only the numeric part.

Find the recorded solubility kinetic at 18 h, 500 µM belonging to CC(C)[C@H](NC(=O)c1ccc(-c2ccc(CNc3nc4c(c(=O)[nH]3)CCC4)c(F)c2)o1)C(=O)NC1COC1 and report it. 32.7

Find the recorded solubility kinetic at 18 h, 500 µM belonging to CC(C)[C@H](NC(=O)c1ccc(-c2ccc(CCc3nc4c(c(=O)[nH]3)CCC4)c(F)c2)o1)C(=O)NC1COC1 and report it. 76.4

====

procedure_text: Metabolic stability in mouse liver microsomes assessed as half life at 1 uM incubated for 60 mins by LC-MS/MS analysis
Assay type: ADME, Microsome
Kindly state half-life at 1 µM for each of the entries shown.
The answer is to be given in h; state only the numeric part.

Find the recorded half-life at 1 µM belonging to CC(C)[C@H](NC(=O)c1ccc(-c2ccc(CCc3nc4c(c(=O)[nH]3)CCC4)c(F)c2)o1)C(=O)NC1COC1 and report it. 1.73

Find the recorded half-life at 1 µM belonging to CC(C)[C@H](NC(=O)c1ccc(-c2ccc(CNc3nc4c(c(=O)[nH]3)CCC4)c(F)c2)o1)C(=O)NC1COC1 and report it. 1.58

====

procedure_text: Intrinsic clearance in mouse liver microsomes
Format: ADME, Microsome
experimental_context: read-out: CLH
quantity_name: microsomal CLint (µL/min/mg)
The answer is to be given in µL/min/mg; state only the numeric part.

Find the recorded microsomal CLint belonging to C=CC[C@@H]1/C=C(\C)C[C@H](C)C[C@H](OC)[C@H]2O[C@@](O)(C(=O)C(=O)N3CCCC[C@H]3C(=O)O[C@H](/C(C)=C/[C@@H]3CC[C@@H](O)[C@H](OC)C3)[C@H](C)[C@@H](O)CC1=O)[C@H](C)C[C@@H]2OC [TACROLIMUS ANHYDROUS] and report it. 306

====

procedure_text: Metabolic stability in rat liver microsomes assessed as half life at 1 uM incubated for 60 mins by LC-MS/MS analysis
Assay type: ADME, Microsome
Kindly state half-life at 1 µM for each of the entries shown.
The answer is to be given in h; state only the numeric part.

Find the recorded half-life at 1 µM belonging to CC(C)[C@H](NC(=O)c1ccc(-c2ccc(CNc3nc4c(c(=O)[nH]3)CCC4)c(F)c2)o1)C(=O)NC1COC1 and report it. 1.67

Find the recorded half-life at 1 µM belonging to CC(C)[C@H](NC(=O)c1ccc(-c2ccc(CCc3nc4c(c(=O)[nH]3)CCC4)c(F)c2)o1)C(=O)NC1COC1 and report it. 1.03

====

procedure_text: Apparent permeability of compound in phosphate buffer by PAMPA assay
Format: ADME
quantity_name: Papp (×10⁻⁶ cm/s)
The answer is to be given in ×10⁻⁶ cm/s; state only the numeric part.

Find the recorded Papp belonging to CC(C)(O)C#Cc1cnc2c(c1)[C@]1(COC(N)=N1)c1cc(-c3cccnc3F)ccc1O2 and report it. 11

Find the recorded Papp belonging to COC(C)(C)C#Cc1cnc2c(c1)[C@]1(COC(N)=N1)c1cc(-c3cccnc3F)ccc1O2 and report it. 12

====

procedure_text: Tmax in rat at 5 mg/kg, po
Assay type: ADME, organism-based
experimental_context: in vivo
quantity_name: Tmax (h)
The answer is to be given in h; state only the numeric part.

Find the recorded Tmax belonging to CO[C@H]1C[C@@H](C)C/C(C)=C/[C@@H](C/C=C/C2(O)COC2)C(=O)C[C@H](O)[C@@H](C)[C@@H](/C(C)=C/[C@@H]2CC[C@@H](O)[C@H](OC)C2)OC(=O)[C@@H]2CCCCN2C(=O)C(=O)[C@]2(O)O[C@H]1[C@@H](OC)C[C@H]2C and report it. 1

Find the recorded Tmax belonging to C=CC[C@@H]1/C=C(\C)C[C@H](C)C[C@H](OC)[C@H]2O[C@@](O)(C(=O)C(=O)N3CCCC[C@H]3C(=O)O[C@H](/C(C)=C/[C@@H]3CC[C@@H](O)[C@H](OC)C3)[C@H](C)[C@@H](O)CC1=O)[C@H](C)C[C@@H]2OC [TACROLIMUS ANHYDROUS] and report it. 1

====

procedure_text: Intrinsic clearance in human liver microsomes
Format: ADME, Microsome
experimental_context: read-out: CLH
Kindly state microsomal CLint for each of the entries shown.
The answer is to be given in µL/min/mg; state only the numeric part.

Find the recorded microsomal CLint belonging to COc1cc(C#N)ccc1COc1cccc(N2C=NN(Cc3nc4c(F)cc(C(=O)O)cc4n3C[C@@H]3CCO3)CC2)n1 and report it. 6

Find the recorded microsomal CLint belonging to COc1cc(C(F)(F)F)ccc1COc1cccc(N2C=NN(Cc3nc4c(F)cc(C(=O)O)cc4n3C[C@@H]3CCO3)CC2)n1 and report it. 12
